study-target: T1, H2L7
T1 construct: Humanized IgG1/kappa, expressed in CHO cells; also called humanized Pyr12.2 variant H2L7; VH2/VL7
T1 sequence (VH, as listed by the source, chain 1 of 2): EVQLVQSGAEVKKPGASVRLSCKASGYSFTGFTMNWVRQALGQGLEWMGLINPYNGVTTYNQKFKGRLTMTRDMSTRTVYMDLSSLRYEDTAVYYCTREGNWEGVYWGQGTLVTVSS
T1 sequence (VL, as listed by the source, chain 2 of 2): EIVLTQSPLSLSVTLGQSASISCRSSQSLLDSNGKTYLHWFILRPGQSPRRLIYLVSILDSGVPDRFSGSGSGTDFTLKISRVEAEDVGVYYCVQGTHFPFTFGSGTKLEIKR
assay-explanation: inhibition ELISA: antigen in solution titrated, antibody fixed (0.5 µg/ml), AβpE3-40 coat
observation-type: IC50

>>> result("EVHHQKLVFFAEDVGSNK (peptide, UniProt P05067 682-699, looked up, pyroglutamate (pE) at position 11, the N-terminus, range 11-28; The range counts on Aβ numbering, not on APP) [AβpE11-28 monomer]")
"> 12.5 µM"
